system: TANOUE; test: selective drug sensitivity score (sDSS, relative to normal bone marrow) (sDSS (score)); higher = more potent and effective on the cell line relative to normal bone marrow cells; conditions: 72 h;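 further: ALL cell lines in 384-well plates, five doses spanning 10,000-fold, each plate scaled between vehicle and 100 µmol/L benzalkonium chloride controls, sDSS an adapted area-under-curve metric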
Please assign a class to every record based on measured selective drug sensitivity score, with ranges bottom end: < -10; midrange: ≥ -10 and < -0.02; top end: ≥ -0.02

Example entries and their recorded answers appear below.
{"compound": "CCCC(CCC)C(=O)O [Valproic_acid] (top concentration 1000000 nM)", "measured-on": "TANOUE", "class-assignment": "top end"}
{"compound": "C[C@@H](Oc1cc(-n2cnc3ccc(CN4CCN(C)CC4)cc32)sc1C(N)=O)c1ccccc1C(F)(F)F (top concentration 10000 nM)", "measured-on": "TANOUE", "class-assignment": "bottom end"}

Any idea which band COc1cccc2c1c(O)c(C(=O)N(C)c1ccc(C(F)(F)F)cc1)c(=O)n2C [Tasquinimod] (top concentration 10000 nM) is in? top end

Any idea which band CCNC(=O)c1noc(-c2cc(C(C)C)c(O)cc2O)c1-c1ccc(CN2CCOCC2)cc1 [Luminespib] (top concentration 1000 nM) is in? bottom end

Any idea which band Cc1sc2c(c1C)C(c1ccc(Cl)cc1)=N[C@@H](CC(=O)Nc1ccc(OCCOCCOCCOCCNc3cccc4c3C(=O)N(C3CCC(=O)NC3=O)C4=O)cc1)c1nnc(C)n1-2 (some centres not stated) [ARV-825] (top concentration 300 nM) is in? bottom end

Any idea which band CCN(CC)CCOc1ccc(/C(=C(/Cl)c2ccccc2)c2ccccc2)cc1 [Clomifene] (top concentration 10000 nM) is in? midrange

Any idea which band COC(=O)C[C@](O)(CCCC(C)(C)O)C(=O)O[C@@H]1C(OC)=C[C@]23CCCN2CCc2cc4c(cc2[C@H]13)OCO4 [Omacetaxine] (top concentration 10000 nM) is in? bottom end

Any idea which band Cc1[nH]c2ccccc2c1CCNCc1ccc(/C=C/C(=O)NO)cc1 [Panobinostat] (top concentration 1000 nM) is in? midrange

Any idea which band COc1cc2c(cc1OC(C)C)[C@H](c1ccc(Cl)cc1)N(c1ccc(N(C)C[C@H]3CC[C@H](N4CCN(C)C(=O)C4)CC3)cc1)C(=O)C2 [NVP-CGM097] (top concentration 25000 nM) is in? midrange

Any idea which band COc1cc(OC)cc(N(CCNC(C)C)c2ccc3ncc(-c4cnn(C)c4)nc3c2)c1 [Erdafitinib] (top concentration 1000 nM) is in? midrange

Any idea which band Cc1ccc(NC(=O)c2ccc(CN3CC[C@H](N(C)C)C3)c(C(F)(F)F)c2)cc1Nc1nccc(-c2cncnc2)n1 [Bafetinib] (top concentration 1000 nM) is in? top end

----------
system: RPMI-8402; test: selective drug sensitivity score (sDSS, relative to normal bone marrow) (sDSS (score)); higher = more potent and effective on the cell line relative to normal bone marrow cells; details: 72 h
Measured selective drug sensitivity score, listed per entry.
No unit in the answer, please; the number alone is enough.

Below, 3 molecules whose answers are already recorded.
{"molecule": "C[C@@H]1CN(CC(=O)Nc2ccc3c(c2)Cc2cccc(-c4cc(=O)cc(N5CCOCC5)o4)c2S3)C[C@H](C)O1 (top concentration 25000 nM)", "selective drug sensitivity score": 1.82}
{"molecule": "Cn1cc(C2=C(c3cn(C4CCN(Cc5ccccn5)CC4)c4ccccc34)C(=O)NC2=O)c2ccccc21 [Enzastaurin] (top concentration 10000 nM)", "selective drug sensitivity score": 5.86}
{"molecule": "COc1c(OCCCN2CCOCC2)ccc2c1N=C(NC(=O)c1cnc(N)nc1)N1CCN=C21 [Copanlisib] (top concentration 1000 nM)", "selective drug sensitivity score": 2.58}

Quick one: selective drug sensitivity score for NC(=O)NO [Hydroxyurea] (top concentration 1000000 nM) ? 3.46

Quick one: selective drug sensitivity score for CNC(=O)c1ccccc1Nc1cc(Nc2ccc(N3CCOCC3)cc2OC)ncc1C(F)(F)F [VS-4718] (top concentration 10000 nM) ? 8.8

Quick one: selective drug sensitivity score for Cc1ccc(NC(=O)c2ccc(CN3CCN(C)CC3)cc2)cc1Nc1nc(-c2cccnc2)cs1 [Masitinib] (top concentration 10000 nM) ? 1.82

----------
system: KASUMI-10; experiment: selective drug sensitivity score (sDSS, relative to normal bone marrow) (sDSS (score)); higher = more potent and effective on the cell line relative to normal bone marrow cells; settings: 72 h
Hi, to clarify the labels: label 1 covers selective drug sensitivity score from -0.02 upward, label 0 covers anything below -0.02.

Example entries and their recorded answers appear below.
{"molecule": "COc1ccc2[nH]cc(/C=C3\\C(=O)Nc4ccc(NC(=O)CCN5CCCCC5)cc43)c2c1 (top concentration 50000 nM)", "measured-on": "KASUMI-10", "class-assignment": "label 1"}
{"molecule": "CN1CCN(c2cc(C(=O)Nc3ccc4c(c3)-c3c(c(C(N)=O)nn3-c3ccc(F)cc3)CC4)c(Cl)cn2)CC1 [PHA-408] (top concentration 10000 nM)", "measured-on": "KASUMI-10", "class-assignment": "label 1"}
{"molecule": "COc1ccc(-c2ccc3ncc4c(c3c2)n(-c2ccc(N3CCNCC3)c(C(F)(F)F)c2)c(=O)n4C)cn1 [NVP-BGT226] (top concentration 1000 nM)", "measured-on": "KASUMI-10", "class-assignment": "label 0"}
{"molecule": "CC(C)(C)NC(=O)[C@H]1CC[C@H]2[C@@H]3CC[C@H]4NC(=O)C=C[C@]4(C)[C@H]3CC[C@]12C [Finasteride] (top concentration 10000 nM)", "measured-on": "KASUMI-10", "class-assignment": "label 0"}

For this molecule, is measured selective drug sensitivity score -0.02 or higher? CC(C)(C)c1cc(NC(=O)Nc2ccc(-c3cn4c(n3)sc3cc(OCCN5CCOCC5)ccc34)cc2)no1 [Quizartinib] (top concentration 1000 nM) label 1

----------
system: KASUMI-2; assay: selective drug sensitivity score (sDSS, relative to normal bone marrow) (sDSS (score)); higher = more potent and effective on the cell line relative to normal bone marrow cells; details: 72 h
Measured selective drug sensitivity score, listed per entry.

Below, 10 compounds whose answers are already recorded.
{"compound": "C[C@]12C=CC(=O)C=C1CC[C@@H]1[C@@H]2[C@@H](O)C[C@@]2(C)[C@H]1CC[C@]2(O)C(=O)CO [Prednisolone] (top concentration 10000 nM)", "measured-on": "KASUMI-2", "selective drug sensitivity score": 13.5}
{"compound": "O=C(NC[C@H](O)CN1CCc2ccccc2C1)c1cc(NC2COC2)ncn1 (top concentration 10000 nM)", "measured-on": "KASUMI-2", "selective drug sensitivity score": -0.06}
{"compound": "CO[C@H]1CC[C@H](N2C(=O)CNc3ncc(-c4ccc(C(C)(C)O)nc4)nc32)CC1 [CC-223] (top concentration 10000 nM)", "measured-on": "KASUMI-2", "selective drug sensitivity score": 7.92}
{"compound": "CC[C@@H]1C(=O)N(C)c2cnc(Nc3ccc(C(=O)NC4CCN(C)CC4)cc3OC)nc2N1C1CCCC1 [BI-2536] (top concentration 1000 nM)", "measured-on": "KASUMI-2", "selective drug sensitivity score": 14.1}
{"compound": "COc1ccc(-c2ccc3ncc4c(c3c2)n(-c2ccc(N3CCNCC3)c(C(F)(F)F)c2)c(=O)n4C)cn1 [NVP-BGT226] (top concentration 1000 nM)", "measured-on": "KASUMI-2", "selective drug sensitivity score": 7.92}
{"compound": "Cc1ccc(=O)n(-c2ccccc2)c1 [Pirfenidone] (top concentration 10000 nM)", "measured-on": "KASUMI-2", "selective drug sensitivity score": 0}
{"compound": "O=C(O)c1ccc(-c2c[nH]c3ncc(-c4ccccc4)cc23)cc1C1CCCC1 (top concentration 10000 nM)", "measured-on": "KASUMI-2", "selective drug sensitivity score": -1.44}
{"compound": "Cc1ccc(NC(=O)c2ccc(CN3CCN(C)CC3)cc2)cc1Nc1nc(-c2cccnc2)cs1 [Masitinib] (top concentration 10000 nM)", "measured-on": "KASUMI-2", "selective drug sensitivity score": -4.38}
{"compound": "Cc1cc([C@@H](C)Nc2ccccc2C(=O)O)c2nc(N3CCOCC3)cc(=O)n2c1 [AZD-6482] (top concentration 2500 nM)", "measured-on": "KASUMI-2", "selective drug sensitivity score": 10.2}
{"compound": "CC(C)(C)NC(=O)[C@H]1CC[C@H]2[C@@H]3CC[C@H]4NC(=O)C=C[C@]4(C)[C@H]3CC[C@]12C [Finasteride] (top concentration 10000 nM)", "measured-on": "KASUMI-2", "selective drug sensitivity score": 0.78}

Quick one: selective drug sensitivity score for CC(C)C[C@H](NC(=O)[C@H](Cc1ccccc1)NC(=O)c1cnccn1)B(O)O [Bortezomib] (top concentration 1000 nM) ? 1.42

Quick one: selective drug sensitivity score for CC[C@]1(O)C[C@H]2CN(CCc3c([nH]c4ccccc34)[C@@](C(=O)OC)(c3cc4c(cc3OC)N(C=O)[C@H]3[C@@](O)(C(=O)OC)[C@H](OC(C)=O)[C@]5(CC)C=CCN6CC[C@]43[C@@H]65)C2)C1 [Vincristine] (top concentration 1000 nM) ? 8.92

The reported measurements were obtained from the supplement of paper PMC8967900.
